- experiment: NCI Yeast Anticancer Drug Screen. Data for the CLN2oe strain (AID 163);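 also: 0% = growth of vehicle-only control cultures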
- experimental_context: S. cerevisiae CLN2oe strain, at 1.2 µM, active compounds read high
This is part of a sample that, as a whole, favours compounds with a hit. Of some 79,000 tested, about 15% had one in any assay.

| molecule | unit_symbol | growth inhibition |
| --- | --- | --- |
| COC(=O)C1C2c3ccccc3C(c3ccccc32)C1C(=O)OC (stereo not given) | % | 2 |
| c1ccc(N=c2nc(N3CCOCC3)ss2)cc1 | % | -11 |
| Nc1nc(N)c(-c2ccc(Cl)c(Cl)c2)c(CP(Cl)(Cl)(Cl)Br)n1 | % | -2 |
| Cc1ccc2nc3sc(=O)sc3nc2c1 | % | -15 |
| [O-][n+]1c2cccc(O)c2[n+]([O-])c2cccc(O)c21 | % | 0 |
| CC(C)(C)c1cc([N+](=O)[O-])cc([N+](=O)[O-])c1O | % | 9 |
| COc1cccc2c1C(=O)c1c(O)c3c(c(O)c1C2=O)C[C@@](O)(/C(C)=N\O)C[C@@H]3OC1CC(N)C(O)C(C)O1 (stereo not given in full) | % | -1 |
| NCCc1ccc(OCc2ccccc2)c(OCc2ccccc2)c1 | % | -1 |
| CCCCCCCCCCCCCCCCP(=O)(O)OP(=O)(O)OCC1OC(n2ccc(N)nc2=O)C(O)C1O (stereo not given) | % | -3 |
| C[CH2][Sn]1([CH2]C)[O]C2C(O)OC(CO)C(O)C2[O]1 (stereo not given) | % | -53 |
